Quick record of Ki values for Prostacyclin receptor (Rattus norvegicus) (UniProt P43253).

{"compound": "CS(=O)(=O)Nc1ccc(Sc2ccc(NC3=NCCN3)cc2)cc1", "Ki (nM)": 79}
{"compound": "COc1ccc(Oc2ccc(NC3=NCCN3)cc2)cc1", "Ki (nM)": 158}
{"compound": "COc1ccc(Sc2ccc(NC3=NC(C)CN3)cc2)cc1 (stereo not drawn)", "Ki (nM)": 63}
{"compound": "CCOC(=O)c1ccc(Sc2ccc(NC3=NCCN3)cc2)cc1", "Ki (nM)": 50}
{"compound": "c1cc(Sc2ccc3c(c2)OCCO3)ccc1NC1=NCCN1", "Ki (nM)": 631}
{"compound": "COc1ccc(-c2ccc(NC3=NCCN3)cc2)cc1", "Ki (nM)": 1000}
{"compound": "COc1ccc(OC)c(Sc2ccc(NC3=NCCN3)cc2)c1", "Ki (nM)": 794}
{"compound": "CC(C)Oc1ccc(Sc2ccc(NC3=NCCN3)cc2)cc1", "Ki (nM)": 32}
{"compound": "COc1ccc(Sc2cccc(NC3=NCCN3)c2)cc1", "Ki (nM)": 3980}
{"compound": "COc1ccc(Sc2ccc(C3=NCCN3)cc2)cc1", "Ki (nM)": 316}
{"compound": "c1cc(SC2CCCCC2)ccc1NC1=NCCN1", "Ki (nM)": 3160}
{"compound": "c1ccc(Sc2ccc(NC3=NCCN3)cc2)cc1", "Ki (nM)": 794}
{"compound": "COc1ccccc1Sc1ccc(NC2=NCCN2)cc1", "Ki (nM)": 3980}
{"compound": "Cc1ccc(Sc2ccc(NC3=NCCN3)cc2)cc1", "Ki (nM)": 100}
{"compound": "Clc1ccc(Sc2ccc(NC3=NCCN3)cc2)cc1", "Ki (nM)": 79}
{"compound": "COc1ccc(Sc2ccc(NC3=NC(C)(C)CN3)cc2)cc1", "Ki (nM)": 631}
{"compound": "CCOc1ccc(Sc2ccc(NC3=NCCN3)cc2)cc1", "Ki (nM)": 40}
{"compound": "FC(F)(F)c1ccc(Sc2ccc(NC3=NCCN3)cc2)cc1", "Ki (nM)": 50}
